Target Under Test: melatonin receptor (Oryctolagus cuniculus, UniProt G1SUP2)
Construct: Typically, the rabbit retina tissues preincubation with [^3 H]-dopamine for 10 minutes; from tissue; host or cells: rabbit retina (superfused retinal tissue)
Sequence (G1SUP2 1-362): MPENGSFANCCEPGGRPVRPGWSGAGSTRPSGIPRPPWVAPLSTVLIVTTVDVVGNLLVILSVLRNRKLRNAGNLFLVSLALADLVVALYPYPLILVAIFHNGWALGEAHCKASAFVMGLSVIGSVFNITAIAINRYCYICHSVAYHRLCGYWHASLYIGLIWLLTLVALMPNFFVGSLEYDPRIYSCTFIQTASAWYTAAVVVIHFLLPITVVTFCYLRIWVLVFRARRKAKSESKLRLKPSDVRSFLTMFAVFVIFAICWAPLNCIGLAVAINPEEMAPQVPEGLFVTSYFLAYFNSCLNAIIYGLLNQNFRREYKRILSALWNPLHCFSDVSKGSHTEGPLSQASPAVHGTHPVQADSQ
Experimental Details: Inhibition of calcium-dependent [3H]dopamine release from rabbit retina (melatonin agonist assay)
Assay type: cell-based
Condition Info: 1 μM concentration of test compound; read-out: % Maximal Inhibition of [3H]dopamine release
Entries and their inhibition at 1 µM
The reply should be a number in %, with the unit left off.

Consider the reported inhibition at 1 µM for these compounds:
Compound: COc1cccc2c1CC(NC(=O)C1CC1)CC2 (stereo not shown) [AH 015]
Unit Info: %
inhibition at 1 µM: 80

Compound: O=C(CCl)NC1Cc2ccccc2C(Cc2ccccc2)C1 (stereo not shown) [AH 029, 4-benzyl-2-chloroacetamido-tetralin]
Unit Info: %
inhibition at 1 µM: 70

Find the recorded inhibition at 1 µM belonging to COc1cccc2c1CC(NC(=O)CCl)CC2 (stereo not shown) [AH 017, 8-methoxy-2-chloroacetamidotetralin] and report it. 75

Consider the compound CCCC(=O)NC1CCc2cccc(OC)c2C1 (stereo not shown) [AH 013, 8-methoxy-2-n-butyramidotetralin] and give its measured inhibition at 1 µM. 80

---

inhibition at 1 µM by entry:
Target Under Test: melatonin receptor (Oryctolagus cuniculus)
Construct: Typically, the rabbit retina tissues preincubation with [^3 H]-dopamine for 10 minutes; from tissue; host or cells: rabbit retina (superfused retinal tissue)
Experimental Details: Inhibition of calcium-dependent [3H]dopamine release from rabbit retina (melatonin agonist assay)
Assay type: cell-based
Condition Info: 1 μM concentration of test compound; read-out: % Maximal Inhibition of [3H]dopamine release
Method: Accordingly, all experiments were run in the presence of S-sulpiride (0.1 μM) to block D-2 dopamine autoreceptors present in the dopamine amacrine cells of retina. Thus, the lower the IC50, the greater the agonistic activity. Assays were performed as described in Dubocovich, J. Pharm. […] The tissue samples are superfused with Krebs' solution, starting at time equal zero until a leveling off of the spontaneous release of radioactivity occurred (about 60 mins). […]
Unit % implied. Number only.

Here are 5 compounds together with their reported answers.
Compound: CCC(=O)NC1CCc2ccccc2C1 (stereo not drawn)
Unit Info: %
inhibition at 1 µM: 70

Compound: COc1cccc2c1CC(NC(=O)c1ccccc1)CC2 (stereo not drawn)
Unit Info: %
inhibition at 1 µM: 40

Compound: CC(=O)NC1CC(Cc2ccccc2)c2ccccc2C1=O (stereo not drawn)
Unit Info: %
inhibition at 1 µM: 60

Compound: O=C(CCl)NC1CCc2ccccc2C1 (stereo not drawn)
Unit Info: %
inhibition at 1 µM: 80

Compound: COc1cccc2c1CC(NC(=O)Cc1ccccc1)CC2 (stereo not drawn)
Unit Info: %
inhibition at 1 µM: 0

Query (compound): COc1cccc2c1CC(NC(=O)C(C)C)CC2 (stereo not drawn) ; field requested: inhibition at 1 µM 80

What inhibition at 1 µM value was documented for this compound, CC(=O)NC1CCc2ccccc2C1 (stereo not drawn) ? 50

Data request, read-out inhibition at 1 µM, for CCC(=O)NC1Cc2ccccc2C(Cc2ccccc2)C1 (stereo not drawn) 65

Given the compound CC(=O)NC1Cc2ccccc2C(Cc2ccccc2)C1 (stereo not drawn) , what is its reported inhibition at 1 µM? 70

---

Target Under Test: melatonin receptor (Oryctolagus cuniculus, UniProt G1SUP2)
Construct: Typically, the rabbit retina tissues preincubation with [^3 H]-dopamine for 10 minutes; from tissue; host or cells: rabbit retina (superfused retinal tissue)
Sequence (G1SUP2 1-362): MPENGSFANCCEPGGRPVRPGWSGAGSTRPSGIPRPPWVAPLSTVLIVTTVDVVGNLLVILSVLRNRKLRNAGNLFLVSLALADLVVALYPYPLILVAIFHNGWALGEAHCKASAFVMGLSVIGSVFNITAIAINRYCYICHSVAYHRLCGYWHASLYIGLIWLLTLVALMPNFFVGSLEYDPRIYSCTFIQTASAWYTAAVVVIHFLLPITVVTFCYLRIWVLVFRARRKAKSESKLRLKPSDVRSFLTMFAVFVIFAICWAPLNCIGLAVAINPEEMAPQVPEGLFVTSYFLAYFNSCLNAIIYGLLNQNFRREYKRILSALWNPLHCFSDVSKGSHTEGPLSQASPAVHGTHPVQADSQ
Experimental Details: Inhibition of calcium-dependent [3H]dopamine release from rabbit retina (melatonin agonist assay)
Type: cell-based
Condition Info: compound added before S2; S-sulpiride 0.1 μM present
pIC50: −log10 of the molar value.
Rule: pIC50 of 8 or more gives Criterion met; anything lower gives Criterion not met.

Compound: COc1cccc2c1CC(NC(=O)C1CC1)CC2 (stereo not drawn)
Class Name: Criterion met

Alright, here's another compound for you.
hey, is pIC50 for this one >= 8? O=C(CCl)NC1Cc2ccccc2C(c2ccccc2)C1 (stereo not drawn) Criterion not met

---

Target Under Test: melatonin receptor
Experimental Details: Inhibition of 2-[125I]iodomelatonin binding to chicken retinal membranes
Condition Info: read-out: IC50, inhibition of 2-[125I]iodomelatonin binding to chicken retinal membranes; 0° C., 5 hr, in the dark
Quantity Kind: IC50

Compound: COc1cccc2c1CC(NC(=O)c1ccccc1)CC2 (stereo not drawn)
IC50: > 10 µM

What does the data say about its IC50? Entry: O=C(NC1CCc2ccccc2C1)c1ccccc1 (stereo not drawn) > 10 µM

Would you mind telling me what IC50 value was observed for COc1ccc2c(c1)CC(NC(C)=O)CC2 (stereo not drawn) ? > 10 µM

---

Target Under Test: melatonin receptor (Oryctolagus cuniculus, UniProt G1SUP2)
Construct: Typically, the rabbit retina tissues preincubation with [^3 H]-dopamine for 10 minutes
Experimental Details: Inhibition of calcium-dependent [3H]dopamine release from rabbit retina (melatonin agonist assay)
Condition Info: compound added before S2; S-sulpiride 0.1 μM present
Quantity Kind: pIC50
# pIC50 is unitless: minus log10 of the molar concentration; print number only

The examples below pair each entry with its known result.
Compound: CCC(=O)NC1CCc2ccccc2C1 (stereo not shown) [AH 006, 2-propionamido-tetralin]
Observed: 8.09
--
Compound: O=C(CCl)NC1Cc2ccccc2C(Cc2ccccc2)C1 (stereo not shown) [AH 029, 4-benzyl-2-chloroacetamido-tetralin]
Observed: 8.00
--
Compound: COc1cccc2c1CC(NC(=O)C(C)C)CC2 (stereo not shown) [AH 014, 8-methoxy-2-iso-butyramido-tetralin]
Observed: 8.10
--
Compound: COc1cccc2c1CC(NC(=O)CCl)CC2 (stereo not shown) [AH 017, 8-methoxy-2-chloroacetamidotetralin]
Observed: 10.20
--
Compound: CC(=O)NC1CCc2ccccc2C1 (stereo not shown) [AH 005, 2-acetamidotetralin]
Observed: 7.28
--
Compound: CCCC(=O)NC1CCc2cccc(OC)c2C1 (stereo not shown) [AH 013, 8-methoxy-2-n-butyramidotetralin]
Observed: 8.93
--
Compound: COc1cccc2c1CC(NC(=O)c1ccccc1)CC2 (stereo not shown) [AH 007, 8-methoxy-2-benzoylamido-tetralin]
Observed: 8.00

Return reported pIC50; argument: O=C(CCl)NC1CCc2ccccc2C1 (stereo not shown) [AH 011, 2-chloroacetamido-tetralin] 8.89

# credit: patent US5071875A
